// values below are reported shrunken log2 fold change
system: Escherichia coli TOP10; experiment: shrunken log2 fold change of peptide-encoding DNA abundance (4.5 h post-induction vs induction); higher = less antimicrobial activity (less host growth inhibition); conditions: time post-induction: 4.5 h; library: site-saturation at positions 5, 18, 19, 20
Reply with just the number.

Task: # input sequence: RRIRCRPPRLPRPRPRPHCEPRP ; wanted: its shrunken log2 fold change
Result: -0.226

Task: If you can, please state the reported shrunken log2 fold change value of RRIRKRPPRLPRPRPRPIEYPRP .
Result: -0.156

Task: Which shrunken log2 fold change is reported for this sequence? RRIRSRPPRLPRPRPRPPHNPRP
Result: -0.0338

Task: Data request, read-out shrunken log2 fold change, for RRIRVRPPRLPRPRPRPNIRPRP
Result: -0.664

Task: Query: shrunken log2 fold change; subject: RRIRNRPPRLPRPRPRPRFNPRP
Result: -0.766

Task: Returns the measured shrunken log2 fold change for the input sequence. Input: RRIRDRPPRLPRPRPRPGMHPRP
Result: 0.0286

Task: Name the recorded shrunken log2 fold change for RRIRPRPPRLPRPRPRPGFCPRP .
Result: 0.295

Task: Tell me the measured shrunken log2 fold change of RRIRCRPPRLPRPRPRPTIFPRP , please.
Result: -0.626

Task: Suppose we examine the sequence RRIRQRPPRLPRPRPRPWYMPRP ; what shrunken log2 fold change value has been reported?
Result: -0.237

Task: What value of measured shrunken log2 fold change is listed for RRIRNRPPRLPRPRPRPISNPRP ?
Result: 0.0351

---

tested on: Escherichia coli TOP10; test: shrunken log2 fold change of peptide-encoding DNA abundance (4.5 h post-induction vs induction); higher = less antimicrobial activity (less host growth inhibition); details: time post-induction: 4.5 h; library: site-saturation at positions 5, 18, 19, 20
quantityName: shrunken log2 fold change
Returns: the value as a bare number; no unit string appended.

RRIRARPPRLPRPRPRPRFVPRP: 0.457
RRIRIRPPRLPRPRPRPRVKPRP: -0.0816
RRIRERPPRLPRPRPRPNGIPRP: -0.115

Task: Request body: readout shrunken log2 fold change, system Escherichia coli TOP10, query RRIRHRPPRLPRPRPRPCNQPRP . Return the value.
Result: -0.185

Task: For Escherichia coli TOP10, provide shrunken log2 fold change of RRIRGRPPRLPRPRPRPWRWPRP please.
Result: 0.656

Task: API: value(readout= shrunken log2 fold change, system= Escherichia coli TOP10, query= RRIRWRPPRLPRPRPRPTHVPRP )
Result: 0.316

Task: Can you look up shrunken log2 fold change on Escherichia coli TOP10 for RRIRTRPPRLPRPRPRPARSPRP ?
Result: 0.0134

Task: Please provide the recorded shrunken log2 fold change for RRIRYRPPRLPRPRPRPTIMPRP , tested on Escherichia coli TOP10.
Result: -1.29

---

system: Escherichia coli TOP10; test: shrunken log2 fold change of peptide-encoding DNA abundance (4.5 h post-induction vs induction); higher = less antimicrobial activity (less host growth inhibition); details: time post-induction: 4.5 h; library: site-saturation at positions 5, 18, 19, 20;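 also: peptides expressed intracellularly from a pBAD plasmid library in pooled LB shake-flask culture, induced with 0.3% L-arabinose, DNA abundance read by NGS, three biological replicates, DESeq2 with apeglm shrinkage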
quantityName: shrunken log2 fold change
I'd appreciate a reply containing only the number, no unit.

RRIRPRPPRLPRPRPRPHHGPRP: 0.0245
RRIRKRPPRLPRPRPRPVYVPRP: -0.0394
RRIRERPPRLPRPRPRPKPRPRP: 0.467
RRIRCRPPRLPRPRPRPKGLPRP: -0.134
RRIRRRPPRLPRPRPRPGWGPRP: 0.497

Task: Which shrunken log2 fold change reading was recorded for the sequence RRIRVRPPRLPRPRPRPHICPRP ?
Result: -0.18

Task: For RRIRVRPPRLPRPRPRPEQAPRP , what is its reported shrunken log2 fold change?
Result: 0.358

Task: Recorded shrunken log2 fold change of RRIRYRPPRLPRPRPRPMLMPRP , please.
Result: -0.13

Task: If you can, please state the reported shrunken log2 fold change value of RRIRWRPPRLPRPRPRPAIIPRP .
Result: -0.296

Task: I have this sequence here, RRIRFRPPRLPRPRPRPFSKPRP , and I need its recorded shrunken log2 fold change.
Result: 0.033

Task: Return reported shrunken log2 fold change; argument: RRIRIRPPRLPRPRPRPACRPRP
Result: 0.225

Task: # shrunken log2 fold change lookup, item RRIRARPPRLPRPRPRPHWYPRP
Result: 0.157

Task: Any idea what its shrunken log2 fold change is? The sequence is RRIRQRPPRLPRPRPRPIEKPRP
Result: 0.0125

Task: Can you look up the measured shrunken log2 fold change of RRIRVRPPRLPRPRPRPWERPRP for me?
Result: 0.153

Task: Which shrunken log2 fold change value is on record for RRIRVRPPRLPRPRPRPNILPRP ?
Result: -0.426
